# studyConditions: in water, 308.15 K
readout: solubility (mole fraction)

Report solubility (mole fraction) for NC(=O)N/N=C/c1ccc([N+](=O)[O-])o1
4.5e-05

---

# studyConditions: in water, 298.15 K
readout: solubility (mole fraction)

Report solubility (mole fraction) for NC(=O)N/N=C/c1ccc([N+](=O)[O-])o1
2.98e-05

---

# studyConditions: in ethanol, 313.15 K
readout: solubility (mole fraction)
The response must contain the number and no unit.

Report solubility (mole fraction) for NC(=O)N/N=C/c1ccc([N+](=O)[O-])o1
0.000258

---

# studyConditions: in NMP, 288.15 K
readout: solubility (mole fraction)

Report solubility (mole fraction) for NC(=O)N/N=C/c1ccc([N+](=O)[O-])o1
0.0396

---

# studyConditions: in isopropanol, 308.15 K
readout: solubility (mole fraction)
The response must contain the number and no unit.

Report solubility (mole fraction) for NC(=O)N/N=C/c1ccc([N+](=O)[O-])o1
0.00027

---

# studyConditions: in ethanol, 283.15 K
readout: solubility (mole fraction)
The response must contain the number and no unit.

Report solubility (mole fraction) for NC(=O)N/N=C/c1ccc([N+](=O)[O-])o1
8.38e-05

---

# studyConditions: in NMP, 293.15 K
readout: solubility (mole fraction)
The response must contain the number and no unit.

Report solubility (mole fraction) for NC(=O)N/N=C/c1ccc([N+](=O)[O-])o1
0.0457

---

# studyConditions: in isopropanol, 283.15 K
readout: solubility (mole fraction)
The response must contain the number and no unit.

Report solubility (mole fraction) for NC(=O)N/N=C/c1ccc([N+](=O)[O-])o1
8.99e-05

---

# studyConditions: in water, 278.15 K
readout: solubility (mole fraction)
The response must contain the number and no unit.

Report solubility (mole fraction) for NC(=O)N/N=C/c1ccc([N+](=O)[O-])o1
1.32e-05

---

# studyConditions: in isopropanol, 293.15 K
readout: solubility (mole fraction)
The response must contain the number and no unit.

Report solubility (mole fraction) for NC(=O)N/N=C/c1ccc([N+](=O)[O-])o1
0.000138

---

# studyConditions: in isopropanol, 288.15 K
readout: solubility (mole fraction)

Report solubility (mole fraction) for NC(=O)N/N=C/c1ccc([N+](=O)[O-])o1
0.000117

---

# studyConditions: in water, 303.15 K
readout: solubility (mole fraction)
The response must contain the number and no unit.

Report solubility (mole fraction) for NC(=O)N/N=C/c1ccc([N+](=O)[O-])o1
3.66e-05

---

# studyConditions: in isopropanol, 313.15 K
readout: solubility (mole fraction)
The response must contain the number and no unit.

Report solubility (mole fraction) for NC(=O)N/N=C/c1ccc([N+](=O)[O-])o1
0.000331

---

# studyConditions: in ethanol, 298.15 K
readout: solubility (mole fraction)
The response must contain the number and no unit.

Report solubility (mole fraction) for NC(=O)N/N=C/c1ccc([N+](=O)[O-])o1
0.000149

---

# studyConditions: in isopropanol, 303.15 K
readout: solubility (mole fraction)

Report solubility (mole fraction) for NC(=O)N/N=C/c1ccc([N+](=O)[O-])o1
0.000223

---

# studyConditions: in ethanol, 318.15 K
readout: solubility (mole fraction)
The response must contain the number and no unit.

Report solubility (mole fraction) for NC(=O)N/N=C/c1ccc([N+](=O)[O-])o1
0.000303

---

# studyConditions: in NMP, 278.15 K
readout: solubility (mole fraction)
The response must contain the number and no unit.

Report solubility (mole fraction) for NC(=O)N/N=C/c1ccc([N+](=O)[O-])o1
0.0317

---

# studyConditions: in DMSO, 313.15 K
readout: solubility (mole fraction)

Report solubility (mole fraction) for NC(=O)N/N=C/c1ccc([N+](=O)[O-])o1
0.0577
